Measured GI50 accompanies every entry in the list below.
system: K562; assay: NCI tumour cell line growth inhibition, 48 h
The source made the active and inactive calls. Rule as the data show it: active = GI50 up to about 1.1 µM and inactive = higher.
QUANTITY NAME: GI50

C=C1C[C@@H]2O[C@H]3[C@H]4[C@@H](C[C@@H](C)[C@@H](OC(C)=O)[C@H]42)[C@@H](C)CO[C@@]3(C)[C@H](OC(C)=O)C[C@H]1O | 25.7 µM (inactive)
O=C(O)/C=C/c1c2ccc(=O)c(O)c-2oc2c(O)c(O)ccc12 | 21.7 µM (inactive)
CCOC(=O)/C(C#N)=C/c1coc2cc(C)cc(C)c2c1=O | > 100 µM (inactive)
COc1ccc2c(c1)[nH]c1c3ccc(OC)cc3oc(=O)c21 | > 100 µM (inactive)
CC(SC(=S)Nc1cccc(F)c1)C(=O)O (stereo not given) | 15.6 µM (inactive)

###

test system: HCC 2998; experiment: NCI tumour cell line growth inhibition, 48 h
Calls of active or inactive are those of the source. No stated cut-off is given here; in the data, active = GI50 up to about 1.1 µM and inactive = higher.
Measured GI50 accompanies every entry in the list below.
QUANTITY NAME: GI50

CN(CCN1CCCC1)C1CCc2cc(Cl)c(Cl)cc2C1 (configuration not stated) | 5.47 µM (inactive)
Cc1c(C(=O)C/C(=N\O)C(=O)Nc2cc(Cl)c(Cl)cc2Cl)[n+]([O-])c2ccccc2[n+]1[O-] | 7.06 µM (inactive)
Cc1cccc(/C=N/NC(=S)NCc2ccccn2)n1 | 41.7 µM (inactive)
O=C1C(N2CCN(CCOCCO)CC2)=C(Cl)C(=O)c2ncccc21 | > 10 µM (inactive)
COC(=O)CCC(=O)c1ccc2c(c1)CCC2 | > 100 µM (inactive)
CC1(C)C2CCC(N)(C2)C1O (configuration not stated) | > 100 µM (inactive)
COc1ccc(C2[C@@H](Cl)C(=O)N2c2ccc(OC)cc2)cc1 (some centres not stated) | > 100 µM (inactive)
COC1CCC(OS(C)(=O)=O)C(C)O1 (configuration not stated) | > 10 µM (inactive)
CCOC(=O)C(OCC1CC=CCC1)Sc1ccccc1 (configuration not stated) | > 100 µM (inactive)
CC#COP(=O)(OCC)OCC | > 100 µM (inactive)
COC(=O)CCC(=O)NC1=C(Nc2ccc(OC)cc2)C(=O)c2ccccc2C1=O | 20.1 µM (inactive)
CNC1=Nc2ccccc2C(=O)N2CSCC12 (configuration not stated) | > 100 µM (inactive)

###

tested on: IGROV-1; experiment: NCI tumour cell line growth inhibition, 48 h
Calls of active or inactive are those of the source. No stated cut-off is given here; in the data, active = GI50 up to about 1.1 µM and inactive = higher. Where a SMILES comes first, the peptide text is derived from it. The star is where a group is joined. Boc = CC(C)(C)OC(=O)*; OBn = c1ccc(CO*)cc1
Classes used: active, inactive

C1OC1CN1CCN(CC2CO2)CC1 (configuration not stated) | inactive
C/C=C/C(C#N)(Cc1ccccc1)OP1(=O)OC(c2ccccc2)C(C)N1C (configuration not stated) | inactive
N#Cc1c(Cl)c2ccccc2n2c1nc1ccccc12 | inactive
Cc1c(C(=O)C/C(=N\O)C(=O)Nc2cc(Cl)c(Cl)cc2Cl)[n+]([O-])c2ccccc2[n+]1[O-] | inactive
COc1ccc(C(=O)Nc2ccccc2C#N)cc1 | inactive
CC(=O)Nc1ccc(C(=O)NN2C(=O)C(Cl)C2c2ccccc2)cc1 (configuration not stated) | inactive
O=C1CCSc2nc(-c3ccc4c(c3)OCO4)nn21 | inactive
CC(=O)C1=C(N=[N+]=[N-])c2cccc3cccc(c23)C1=O | inactive
OCCCSCCO | inactive
COC(=O)C(=O)c1c2ccccc2n2ccc3c4ccccc4[nH]c3c12 | inactive
CC(=O)O[C@H]1C(=O)[C@@]2(C)C(C(OC(=O)c3ccccc3)[C@]3(O)CC(OC(=O)C(O)C(NC(=O)c4ccccc4)c4ccc(F)cc4)C(C)=C1C3(C)C)[C@]1(OC(C)=O)CO[C@@H]1C[C@@H]2O (some centres not stated) | active
Fc1cccc2c1cc1ccc3cccc4ccc2c1c34 | inactive
CCC(C)(O)c1cn(-c2ccc(S(=O)(=O)O)cc2)nn1 (configuration not stated) | inactive
Clc1ncc(Cl)c(Cl)n1 | inactive
CCCCCCCCCc1cc(=O)c2c(O)cc(O)cc2o1 | inactive
O=c1nc(N2CCCCC2)sc2[nH]c3ccccc3c12 | inactive
ClCCCN1CCN(CCCl)CC1 | inactive
NC1CCCCC1.O=C(O)C(CP(=O)(O)O)=C(Cl)Cl | inactive
CC(C)C(=O)N[C@@H](C)C(=O)N(Cc1ccc2ccccc2c1)N=O | inactive
O=C(/C(=C\C(=O)c1cccs1)c1ccsc1)c1ccc(Br)cc1 | inactive
O=C1NC2=C(CCCCC/C2=N\O)C12CCCCCC2 | inactive
C1CSCCSCCCSC2CCCCC2SC1 (configuration not stated) | inactive
O=C(/C=C/c1ccccc1)CC(=O)CCC(=O)Nc1ccc(Cl)cc1 | inactive
CCCC[S+]([O-])CCC(N)P(=O)(O)O (configuration not stated) | inactive
CC(=O)/C(=C\Nc1c(C)n(C)n(C)c1=O)C(=O)c1ccccc1 | inactive
O=C(O)CCc1c2ccc(=O)c(O)c-2oc2c(O)c(O)ccc12 | inactive
CC(C)(C)c1ccccc1N1C(=O)c2ccc3c4c(ccc(c24)C1=O)N(c1ccccc1C(C)(C)C)C3=O | inactive
C/C=C/C(O)P(=O)(OC)OC (configuration not stated) | active
O=C1NC(N2CCOCC2)=N/C1=C\c1cccs1 | inactive
CC(C)(N)CO[C@H]1C[C@H]2CC[C@@]1(C)C2(C)C | inactive
CC(C)C(=O)/C=C/c1ccc(Cl)cc1Cl | inactive
CCOC(=O)C1(NC(=O)OC(C)(C)C)CCc2[nH]oc(=O)c2C1 (configuration not stated) | inactive
CN(C)CCNC(=O)c1cccc2c(Nc3ccc(S(N)(=O)=O)cc3)c3ccccc3nc12 | inactive
O=C(O)c1c(-c2ccccc2)c(=O)[nH]c2ccccc12 | inactive
COC(=O)/C(C#N)=C1\CCC(O)N1 (configuration not stated) | inactive
OC(CCN1CCN(CCOC(c2ccccc2)c2ccccc2)CC1)c1ccc(Br)cc1 (configuration not stated) | inactive
CC(C)(C)OC(=O)NC1CC2(C=C(Br)C(=O)C(Br)=C2)OC1=O (configuration not stated) | inactive
Cc1cc2c(O)nc(N)nc2nc1C | inactive
Cc1nnc2n1N=C(CC(=O)c1ccc(O)cc1O)CN2N | inactive
CC/N=C(/C#N)NCC | inactive
CC(C(N)=O)N(C)C(=O)c1cnc2ccccc2c1 (configuration not stated) | inactive
CC(=O)OC(Cc1cc(C=C(C(F)(F)F)C(F)(F)F)cc(C)n1)(C(F)(F)F)C(F)(F)F | active
C=CCCC1(CC(Sc2ccccc2)P(=O)(c2ccccc2)c2ccccc2)OCCO1 (configuration not stated) | inactive
CCOC(=O)C(NC(=O)c1ccccc1)(Nc1ccc(S(=O)(=O)Nc2nc(C)cc(C)n2)cc1)C(F)(F)F (configuration not stated) | inactive
CC(C)CC(NC(=O)OC(C)(C)C)C(=O)N1CCCC1C(=O)OCc1ccccc1 (stereo not drawn) (Boc-Leu-Pro-OBn; configuration not given here) | inactive
O=[N+]([O-])c1c(F)c(F)c2c(c1F)Nc1ccccc1S2 | inactive
COC(=O)NC1(NC(=O)OC)NC(=O)c2cc(OC)c(OC)cc2N1 | inactive

###

system: HOP-62; assay: NCI tumour cell line growth inhibition, 48 h
Active and inactive are the calls of the source. Cut-off read from the data, not from the text of the source: active = GI50 up to about 1.1 µM and inactive = higher.
QUANTITY NAME: GI50

CC1=CC[C@@H](C(C)(C)O)C[C@@H]1O | > 5000 µM (inactive)
O=C(/C(=C\C(=O)c1cccs1)c1ccsc1)c1ccc(Br)cc1 | > 100 µM (inactive)
c1ccc(OC2=NC3=S(S2)SC(Oc2ccccc2)=N3)cc1 | 26.2 µM (inactive)
Clc1ccc(COC(Cn2ccnc2)c2ccc(Cl)cc2Cl)c(Cl)c1 (stereo not drawn) [MICONAZOLE NITRATE] | 13.2 µM (inactive)
N=C(N)N/N=C/c1c(-c2ccc([N+](=O)[O-])cc2)nc2n1CCS2 | 20.5 µM (inactive)
O=C1C(Cl)C(c2cccc([N+](=O)[O-])c2)N1n1cnc2ccccc2c1=O (stereo not drawn) | > 100 µM (inactive)
CCOC(=O)c1nc2cc(F)c(F)cc2nc1NCc1cc(OC)c(OC)c(OC)c1 | 38.5 µM (inactive)
CNC(=O)OCc1c(COC(=O)NC)c(C)n(-c2ccc(Br)cc2)c1C | 13.2 µM (inactive)
COc1cc2ncnc(Nc3cccc(Cl)c3)c2cc1OC | 20.8 µM (inactive)
O=[N+]([O-])c1c(F)c(F)c2c(c1F)Nc1ccccc1S2 | 12.6 µM (inactive)
COc1ccc2c(c1)Cc1c-2[nH]c2cc3c(cc2c1=O)OCO3 | 17.1 µM (inactive)
CCC(C)N1CN(c2ccccc2)C2(CCN(CCCC(=O)c3ccc(F)cc3)CC2)C1=O (stereo not drawn) | 1.87 µM (inactive)
Oc1c(C(Nc2cccc3cccnc23)c2ccccc2)ccc2cccnc12 (stereo not drawn) | 9.64 µM (inactive)
CC1=C(C(=O)NNC(=O)Cc2ccccc2)CC(C(=O)NNC(=O)Cc2ccccc2)=C(C)N1 | > 100 µM (inactive)
COc1ccc2c(c1)CCN1CCCc3ccc(OC)cc3C21 (stereo not drawn) | 67.9 µM (inactive)
Cn1c(C2CCCc3c2c2ccccc2n3C)cc2ccccc21 (stereo not drawn) | 286 µM (inactive)
Clc1ncc(Cl)c(Cl)n1 | 16.5 µM (inactive)
COC(=O)C1=C(O)C(C(=O)OC)[C@]2(O)[C@H](C(=O)OC)[C@H]1C[C@@H](c1c(Cl)cccc1Cl)[C@H]2C(=O)OC (stereo partly drawn) | 3.07 µM (inactive)
CC1(F)C=CC(=O)C=C1 | > 100 µM (inactive)
CC(C)C(=O)N[C@@H](C)C(=O)N(Cc1ccc2ccccc2c1)N=O | > 100 µM (inactive)
O=C(O)c1cc2c(cc1S(=O)(=O)O)C1C(C3C2C2(Cl)C(Cl)=C(Cl)C3(Cl)C2(Cl)Cl)C2(Cl)C(Cl)=C(Cl)C1(Cl)C2(Cl)Cl (stereo not drawn) | 26.2 µM (inactive)
CCSC1=N/C(=C\c2ccc(N(C)C)cc2)C(Cl)=N1 | > 100 µM (inactive)
O=C(O)CCc1c2ccc(=O)c(O)c-2oc2c(O)c(O)ccc12 | > 100 µM (inactive)
